Please go through the items and note down their switch fluorescence ratio.
# System: ATP;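 note: ATP exposure 15 min at 22 °C before imaging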
# assayRemarks: switch fluorescence ratio, 500 uM ATP over buffer (Cy3 cluster intensity, sum of 5 cycles each) (fold (ratio)); higher = stronger signal-on switching upon ATP binding; sequences stand for … in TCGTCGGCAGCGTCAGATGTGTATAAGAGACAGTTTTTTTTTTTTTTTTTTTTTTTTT…TC
# conditionDetails: aptamer strand: ATP DNA aptamer (quencher-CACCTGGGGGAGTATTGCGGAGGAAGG + anchor), 100 nM annealed; ATP concentration: 500 uM

Quick one: switch fluorescence ratio of TCTATTACGC ?
1

Item: AGGCGGTGGC
1.02

Here is the next sequence: TTTATCACAG
1.01

# iterate: TGATTAGATT
1.01

Next up: GATAGCAGCG
1.01

How about TCGACCTTCT ?
1.77

Then AACACCTCTC ?
1.1

Same lookup for CGTTTTTATT , please.
1.01

Please do the same for CAGTCTGCAG as well.
0.991

And the next one, ATAGCCGTCG ?
1.07

GAGTTAAAAG ?
1.01

Thanks! And AACAGAGTTT ?
1.02

Query CCGTCGCTTA next
2.36

Try this sequence too: TAGTACAGGC
1.06

Same question for AGTTTGGGGG please.
0.966

Now this one: CGTGCTGGTT
1.01

Same again, this time with CGGCTTGCTG
1.03

// repeat for TCACTTATGG and report
1.03

And the next one, AACCGTGTGT ?
0.994

Entry to check: GAGTGAGGGC
0.996

What do you get for AGTTCAACCT ?
1.65

# repeat for TGCAGGGCGA
1

Proceed to CAGTTTCAGG
0.966

Now try TGCGACCGTT .
1.01

Thanks! And ATTTCAGGTC ?
1.02

Same thing, different sequence: TTCCTTCATT
1.04

Try this sequence too: TTTTTTCAGG
1.03

Also TTTTTGAGGG ?
1.01

Repeat for the following sequence: GGTGGTGGAC
0.992

Note, next up: CATGAATGGA
1.01

Here is the next sequence: TCATTTCCGG
1.05

And for GACGAGCGGT ?
1.3

====

I'd be grateful if you could share measured switch fluorescence ratio for these entries.
# Test system: ATP;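 note: ATP exposure 15 min at 22 °C before imaging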
# assayRemarks: switch fluorescence ratio, 500 uM ATP over buffer (Cy3 cluster intensity, sum of 5 cycles each) (fold (ratio)); higher = stronger signal-on switching upon ATP binding; sequences stand for … in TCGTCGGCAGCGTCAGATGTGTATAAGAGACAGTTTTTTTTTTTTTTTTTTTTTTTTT…TC
# conditionDetails: aptamer strand: ATP DNA aptamer (quencher-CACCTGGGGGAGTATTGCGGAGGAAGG + anchor), 100 nM annealed; ATP concentration: 500 uM
Output: the number by itself.

Would you kindly share the measured switch fluorescence ratio for TGGCTTAAAC ?
1.18

Now the same for CTATAGAAAT
0.999

And then AATTTGTATT , what is it?
0.997

Try this sequence too: ATGGAAGTG
1

Next sequence up: CTGATGTAGC
1.21

Field entry: TGCACCAGGA
1.13

Another sequence: CGTAAACTTG
1.02

Now consider TATGGGCGTT .
1

Next: GACGACTGAG
0.999

Record: TTAAGACTTT
1.02

Moving on to GGAGGCCTCG
0.982

Moving on to TAAGGGTACG
1.03

For GGAAATGACT then?
1.01

====

# System: ATP;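 note: ATP exposure 15 min at 22 °C before imaging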
# assayRemarks: switch fluorescence ratio, 500 uM ATP over buffer (Cy3 cluster intensity, sum of 5 cycles each) (fold (ratio)); higher = stronger signal-on switching upon ATP binding; sequences stand for … in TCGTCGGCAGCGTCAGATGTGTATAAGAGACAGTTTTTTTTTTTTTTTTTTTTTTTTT…TC
# conditionDetails: aptamer strand: ATP DNA aptamer (quencher-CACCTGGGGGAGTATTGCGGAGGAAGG + anchor), 100 nM annealed; ATP concentration: 500 uM
measuredAttribute: switch fluorescence ratio
Please reply with the value in numeric form only.

Recorded switch fluorescence ratio for TAGCTGGGGG , please?
0.995

Do the same for TCAATCATAT please
0.982

Okay, and TTAATGAGTG ?
0.99

Next sequence: AAGGTTTGCC
0.965

Do the same for ACCGGGTGGG please
1.12

Next sequence: TGTGGTGGGG
0.996

Okay, and AAGAGGCGCT ?
0.995

Same lookup for GGGGGTAGTA , please.
1.01

Same question for CTCCAGTCAG please.
1.51

Similarly, TTTGAGGTAG ?
0.98

Now try GCTTACAGGC .
1.04

Could you do the same for AAAATGCATC , please?
1.04

Queued: TAAATCCGGG
1

// query: GAGGCTGGGG
1

Next sequence up: GGGAGGGTTA
0.996

Now the same for TGGGGGTGG
0.957

Also, GGGCAATCTT please.
1.12

And then GGAGTTTGAG , what is it?
1

Also GGGACTTCAA , if possible.
1

Let us now turn to ATAGATGGCC
0.95

Now the same for ACGGGTGACC
1.03

Try CGGCGCCTGC next.
1.08

Now the sequence TAAAAAGA
0.95

Same lookup for TCAATGGTGG , please.
1.01

Item: TTGCAGACTT
1.05

Can you check GCACTCTGAG next?
0.993

# iterate: CTTTCCGTGC
1.32

Moving on to AAAGGATATC
1.04

Next up: ATGTCAGGTG
4.1

Thanks! And ACCTTTTTTT ?
1.17

Likewise for TAAATCAGTA ?
0.989

Another sequence: TTTAAGGATA
0.987

// repeat for AGGAATTGAA and report
0.982

Another sequence to check: TTATTTTTA
0.97

====

# System: ATP;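 note: ATP exposure 15 min at 22 °C before imaging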
# assayRemarks: switch fluorescence ratio, 500 uM ATP over buffer (Cy3 cluster intensity, sum of 5 cycles each) (fold (ratio)); higher = stronger signal-on switching upon ATP binding; sequences stand for … in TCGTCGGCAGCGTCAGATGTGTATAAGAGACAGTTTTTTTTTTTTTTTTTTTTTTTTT…TC
# conditionDetails: aptamer strand: ATP DNA aptamer (quencher-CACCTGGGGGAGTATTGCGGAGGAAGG + anchor), 100 nM annealed; ATP concentration: 500 uM
Record form. Attribute: switch fluorescence ratio. Fill in for each entry.
Lab note: jot the number down without any unit.

// map ATCAGATTGG to recorded switch fluorescence ratio (system: ATP);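 note: ATP exposure 15 min at 22 °C before imaging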
0.989

Request: TAGGGTGGGA
0.99

Can you check CGGCTTTATA next?
1.02

Also, AGAAAAGGGG please.
1.01

// repeat for GATTGGGTTT and report
0.999

Now give it for GAGCTTGAGT too.
0.984

====

# Test system: ATP;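 note: ATP exposure 15 min at 22 °C before imaging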
# assayRemarks: switch fluorescence ratio, 500 uM ATP over buffer (Cy3 cluster intensity, sum of 5 cycles each) (fold (ratio)); higher = stronger signal-on switching upon ATP binding; sequences stand for … in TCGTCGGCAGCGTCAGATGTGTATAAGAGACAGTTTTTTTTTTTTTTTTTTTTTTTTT…TC
# conditionDetails: aptamer strand: ATP DNA aptamer (quencher-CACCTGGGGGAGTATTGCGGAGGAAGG + anchor), 100 nM annealed; ATP concentration: 500 uM
Exercise: for every item that follows, state its recorded switch fluorescence ratio.
// response body must contain only the number

Which switch fluorescence ratio value is on record for ACTACACTTT ?
1.27

Okay, and AGAGTTGTTT ?
0.997

What do you have for CTGTACGGGG ?
1.02

Next up: TGTAGTTGTG
1.02

Likewise for TTATGGGAA ?
1.04

# iterate: TGCTATTAGG
0.979

Param item: GGAGATGTGG
0.989

Next sequence up: CCTAGCCCTT
1.05

Cool, now GGGGGCCCTC
0.985

Continue with TGGTTTTTTG
0.996

Also need ATTGCTTATT , thanks.
0.974

Again, but for GCGTCCGACT
0.986

Now the same for TGTCTATTTT
1.02

Also, AAAGAATGGG please.
0.978

How about TGGGAAGACA ?
1.06

Let us now turn to ACTCGGGCAG
0.994

And the next one, TCAGAAGCGG ?
1.3

Consider next the sequence GTATCCAGGG in the same way.
1.13

Request: TGGCTCATAC
1.45

Record: ATTCCAAGGT
0.997

Then this sequence: TTCGTAGGCA
1.02

Same thing, different sequence: CACAGCTAAA
1.09

Try this sequence next: AGCGATGCGG
0.987

Can you check AGGCCTCGCA next?
1.03

Queued: GCTGTGGGTA
0.989

Same lookup for ATTGTTGGGG , please.
0.967

Likewise for TGGGGTTTGT ?
0.976

Thanks! And GGCGCTTCGG ?
0.967

Ok, now AGGTCAGTAG
1

GGGAGGGGGT , same question.
1

Again, but for TGGTAGGGGG
0.987

Also check GCAAAACA
1.3

One more sequence: AATACGTAGT
1.04

Entry to check: TTGGGGAGTA
0.993

Query TGCCCCCGGT next
1.08

Another: AGGGGTACGC
0.95

Next entry: ATTGCCGGGA
1.01

Subsequent entry: GGTAGTGTTT
0.998

Same thing, different sequence: TTTGGATCTG
1.03

Now consider AGGGTGTTTG .
1.01

Quick one: CCATTAAAAG
1

Now this one: TAAAAATTAT
1

Another: AGTCGGGATG
0.963

Proceed to CGCCGAGTTT
1.05

Lookup TACCTACATC
1.26

Lookup AGATTCCGCT
1.11

What about this sequence? AACCTTTTTA
1.01

Proceed to CCTGGTACGT
1.01

And what about the sequence TTACGGCCCG ?
1.05

Same read-out for TTTGGCAGTC ?
1.1

Lookup TGGGGAAAGG
0.978

Field entry: TAGAGTCGTG
0.981

How about this sequence: TATGTGGGCC
0.97

Queued: AAGGTATTAG
0.993

Continue with ACACCCGGCC
1.28

Could you do the same for CAGCCGGGTG , please?
1.34

Also TTAGGGTTTG , if possible.
0.995

Same read-out for AGTTTCGGGC ?
0.974

Now try GTGGGCGTTT .
1

And TTTTCACCAA ?
1.03

Next entry: TTTTAAGTTG
1.01

How about this sequence: CGCTCGTATT
1.02

Same again, this time with CATGGGGCCT
0.998

How about this sequence: TTATCCTTCA
1.27

Now give it for TCGGGATTGA too.
0.98

Consider next the sequence GGGGCGGGCA in the same way.
1.03

Next: AATAAGTGTT
0.979

Then TAGCAGTTGG ?
0.988

Next entry: AGGAAGAAAG
1.04

What do we get for GCAGGAAATG ?
0.992

And for GTTTTTTCAT ?
1.02

Next: CTAAAAGGGG
1.02

Same read-out for ATATCATGGG ?
0.982

From: the supplement of paper PMC10126150
